Target: T1, hGITR-hIgG (human, UniProt Q9Y5U5 26-161, limits assumed)
T1 construct: not shown: human IgG part of the fusion
T1 sequence: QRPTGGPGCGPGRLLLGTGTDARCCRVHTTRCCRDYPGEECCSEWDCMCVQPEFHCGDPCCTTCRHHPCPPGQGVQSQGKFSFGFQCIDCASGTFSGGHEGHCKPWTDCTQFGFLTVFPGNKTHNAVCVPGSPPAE
Experiment: BIAcore SPR; hGITR-hIgG capture antigen, mAb analyte; apparent Kd
quantity kind: pKd
On this scale, pKd is minus log10 of a concentration expressed in M (mol/L).

Solved cases below.
# binder, pKd
measured = [
    ("1D8 (antibody, V domains shown, Parental rodent anti-human GITR monoclonal antibody from a hybridoma; kappa VL; also called 1D8.B5) VH: QVTLKESGPGILKPSQTLSLTCSFSGFSLSTSGMGVGWIRQPSGKGLEWLAHIWWDDDKYYSPSLKSQLTISKDTSRNQVFLKITSLDTADTATYYCVRSYYYGSSGAMDYWGQGTSVTVSS VL: DIVMTQTPLSLPVSLGDQASISCRSSQSLVHSDGNTYLHWYLQKPGQSPKLLIYKVSKRFSGVPDRFSGSGSGTDFTLKISRVEAEDLGVYFCSQSTHVPPTFGGGTKLEIKR", 9.34),
    ("3D6 (antibody, V domains shown, Parental rodent anti-human GITR monoclonal antibody from a hybridoma; kappa VL; also called JL5.3D6; hybridoma PTA-9889) VH: EVQLVESGGGLVQPGRSLKLSCAASGFTFSDYYMAWVRQAPTKGLEWVAYIHANGGSTYYRDSVRGRFSISRDNGKSTLYLQMDSLRSEDTATYYCTTGSFMYAADYYIMDAWGQGASVTVSS VL: DVVMTQTPVSLSVSLGNQASISCRSSQSLLHSDGNTFLSWYFQKPGQSPQLLIYLASNRFSGVSNRFSGSGSGTDFTLKISRVEPEDLGVYYCFQHTHLPLTFGSGTKLEIKR", 8.09),
    ("6H6 (antibody, V domains shown, Parental rodent anti-human GITR monoclonal antibody from a hybridoma; kappa VL; also called 6H6.C3; hybridoma PTA-9892) VH: QVQLQQSGAELMKPGASVKISCKATGYTFSRYWIEWIKQRPGHGLEWIGEILPGSGSSNYNEKFKDKATFTADTSSNTAYMQFSSLTSEDSAVYYCARKVYYYAMDFWGQGTSVTVSS VL: QIVLTQSPAIMSVSLGERVTVTCTASSSVSSSYFHWYQQKPGSSPKLWIYSTSNLASGVPARFSGSGSGTSYSLTISTMEAEDAATYYCHQYHRSPRTFGGGTKLEIKR", 8.82),
    ("17F10 (antibody, V domains shown, Parental rodent anti-human GITR monoclonal antibody from a hybridoma; kappa VL; also called 17F10.B1) VH: EVKLVESGGGFVKPGGSLKLSCAASGFTVRNYAMSWVRQTPEKRLEWVASISTGDRSYLPDSMKGRFTISRDNARNILYLQMSSLRSEDTAIYYCQRYFDFDSFAFWGQGTLVTVSA VL: DIQMTQTPSSLSASLGDRVTISCRASQDINNFLNWYQQKPDGSLKLLIYYTSKLHSGVPSRFSGSGSGTDFSLTISNLDQEDVATYFCQQGHTLPPTFGGGTKLEVKR", 9.95),
]

# next binder below
Query 49A1 (antibody, V domains shown, Parental rodent anti-human GITR monoclonal antibody from a hybridoma; kappa VL; also called 49A1.B1) VH: EVQLQESGPSLVKPSQTLSLTCSVTGDSITSGYWNWIRKFPGNKFEYMGFISYSGNTYYNPSLRSRISITRDTSKNQYFLHLNSVTTEDTATYYCSRRHLISGYGWFAYWGQGTLVTVSA VL: VIVMTQSHKFMSTSIGDRVNITCKASQDVISAVAWYQQKPGQSPKLLIYWASTRHTGVPDRFTGSGSGTDFTLTINSVQAEDRALYYCQQHSYTPPWTFGGGTNLEIKR yields pKd of 9.18
